Each recorded value in this set is attributed to ChEMBL document CHEMBL1138344.

Entries and their half-life values follow.
assay: Metabolic stability in human liver microsomes; assay type: ADME, Microsome

Worked cases, answers included:
CC(C)c1ccc(SCC(=O)N2CCOCC2)cc1 : 40 min
CC(C)c1ccc(SCC(=O)N2CCOCC2C(=O)O)cc1 (stereo not drawn) : > 60 min
COC(=O)C1COCCN1C(=O)CSc1ccc(C(C)C)cc1 (stereo not drawn) : 40 min
COC(=O)C1COCCN1C(=O)C(F)(F)Sc1ccc(C(C)C)cc1 (stereo not drawn) : 40 min
COC(=O)[C@@H]1CCCCN1C(=O)C(=O)c1cc(OC)c(OC)c(OC)c1 : 40 min
COc1ccc(CCC(=O)N2CCOCC2)cc1 : 40 min
C=CC[C@@H]1/C=C(\C)C[C@H](C)C[C@H](OC)[C@H]2O[C@@](O)(C(=O)C(=O)N3CCCC[C@H]3C(=O)O[C@H](/C(C)=C/[C@@H]3CC[C@@H](O)[C@H](OC)C3)[C@H](C)[C@@H](O)CC1=O)[C@H](C)C[C@@H]2OC [TACROLIMUS ANHYDROUS] : > 60 min

Consider the additional compound presented here.
Qu. Item under review: CC(C)c1ccc(SCC(=O)N2CCOCC2C(=O)OCCCc2cccnc2)cc1 (stereo not drawn) . Reported half-life?
Ans. 40 min
